Listing of entries alongside the reported Hydrolysis constant Kh pH 2.0.
assay: Drug release assay (hydrolysis rate test in pH 7.4 / pH 2.0 buffer, HPLC)
Type: physicochemical
condition-notes: pH 2.0; Kh=-ln[100%-Release rate (%)]/t
Returns: the value as a bare number; no unit string appended.

Recorded results for 4 molecules are shown here.
CCc1c2c(nc3ccc(OC(=O)CN(C4CCCCC4)C4CCCCC4)cc13)-c1cc3c(c(=O)n1C2)COC(=O)[C@]3(O)CC
0.041
CCCc1ccc(N2CCc3cc(OC(=O)OCn4cc(F)c(=O)[nH]c4=O)ccc3C2)cc1
0.137
CCCCCN(CCCCC)c1ccc(OC(=O)OCn2cc(F)c(=O)[nH]c2=O)cc1
0.153
O=C(OCn1cc(F)c(=O)[nH]c1=O)Oc1ccc(CC2CCN(C(c3ccccc3)c3ccccc3)CC2)cc1
0.027

Now let's try a different one.
-- ask Report Hydrolysis constant Kh pH 2.0 for `COc1cccc2c1C(=O)c1c(O)c3c(c(O)c1C2=O)C[C@@](O)(C(C)=O)C[C@@H]3O[C@H]1C[C@H](NC(=O)Oc2ccc(CN3CCN(C)CC3)cc2)[C@H](OC(C)=O)[C@H](C)O1` please.
-- reply 0.004

---

assay: Drug release assay (hydrolysis rate test in pH 7.4 / pH 2.0 buffer, HPLC)
Type: physicochemical
condition-notes: pH 7.4 buffer solution, 37° C., 200 rpm, 6 h; residual content relative to 0 h by HPLC
So basically: Release rate (%) pH 7.4 (6 h) at 80% or higher? That is Met. Lower than 80%? That is Not met.

The following molecules have reported results that may help.
CCCc1ccc(N2CCC(Cc3ccc(OC(=O)OCn4cc(F)c(=O)[nH]c4=O)cc3)CC2)cc1
Not met
COc1cccc2c1C(=O)c1c(O)c3c(c(O)c1C2=O)C[C@@](O)(C(C)=O)C[C@@H]3O[C@H]1C[C@H](NC(=O)Oc2ccc(CN3CCN(C)CC3)cc2)[C@H](OC(C)=O)[C@H](C)O1
Not met
CC[C@@]1(O)C(=O)OCc2c1cc1n(c2=O)Cc2cc3cc(OC(=O)CC4CCN(CC(c5ccccc5)c5ccccc5)CC4)ccc3nc2-1
Not met
CCCN(CCC)c1ccc(-c2ccc(OC(=O)OCn3cc(F)c(=O)[nH]c3=O)cc2)cc1
Met

-- ask Answer whether Release rate (%) pH 7.4 (6 h) of `CCCc1ccc(N2CCc3cc(OC(=O)OCn4cc(F)c(=O)[nH]c4=O)ccc3C2)cc1` is greater than or equal to 80%.
-- reply Met

-- ask Answer whether Release rate (%) pH 7.4 (6 h) of `CCCCCCOC(=O)OCn1cc(F)c(=O)[nH]c1=O` is greater than or equal to 80%.
-- reply Not met

-- ask Answer whether Release rate (%) pH 7.4 (6 h) of `O=C(OCn1cc(F)c(=O)[nH]c1=O)Oc1ccc(C2CCN(CC(c3ccccc3)c3ccccc3)CC2)cc1` is greater than or equal to 80%.
-- reply Met

-- ask Answer whether Release rate (%) pH 7.4 (6 h) of `CCCCC1CCN(c2ccc(CCOC(=O)n3cc(F)c(=O)[nH]c3=O)cc2)CC1` is greater than or equal to 80%.
-- reply Not met

---

Listing of entries alongside the reported Release rate (%) pH 2.0 (6 h).
assay: Drug release assay (hydrolysis rate test in pH 7.4 / pH 2.0 buffer, HPLC)
Format: physicochemical
condition-notes: pH 2.0 buffer solution, 37° C., 200 rpm, 6 h; residual content relative to 0 h by HPLC
Quick reminder: number only, in %, skip the unit.

Recorded results for 5 compounds are shown here.
O=C(OCn1cc(F)c(=O)[nH]c1=O)Oc1ccc(C2CCN(CC(c3ccccc3)c3ccccc3)CC2)cc1 [Example 7]
16
O=C(OCn1cc(F)c(=O)[nH]c1=O)Oc1ccc(C2CCN(CC34CC5CC(CC(C5)C3)C4)CC2)cc1 [Example 8]
22
CC[C@@]1(O)C(=O)OCc2c1cc1n(c2=O)Cc2cc3cc(OC(=O)OCC4CCCN4C(c4ccccc4)c4ccccc4)ccc3nc2-1 (some centres unmarked) [Example 20]
37.2
Cc1cc(C)cc(N2CCC(c3ccc(OC(=O)OCn4cc(F)c(=O)[nH]c4=O)cc3)CC2)c1 [Example 4]
21
COc1cccc2c1C(=O)c1c(O)c3c(c(O)c1C2=O)C[C@@](O)(C(C)=O)C[C@@H]3O[C@H]1C[C@H](NC(=O)Oc2ccc(CN3CCN(C)CC3)cc2)[C@H](OC(C)=O)[C@H](C)O1 [Example 23]
2.5

-- ask Report Release rate (%) pH 2.0 (6 h) for CCCCCCOC(=O)OCn1cc(F)c(=O)[nH]c1=O [Example 24] please.
-- reply 0

The measured values listed here are drawn from patent US12729186B2.
